Entry source: paper PMC5605198

TESTED_ON: MELK (Homo sapiens, UniProt Q14680)
Sequence (Q14680 whole entry): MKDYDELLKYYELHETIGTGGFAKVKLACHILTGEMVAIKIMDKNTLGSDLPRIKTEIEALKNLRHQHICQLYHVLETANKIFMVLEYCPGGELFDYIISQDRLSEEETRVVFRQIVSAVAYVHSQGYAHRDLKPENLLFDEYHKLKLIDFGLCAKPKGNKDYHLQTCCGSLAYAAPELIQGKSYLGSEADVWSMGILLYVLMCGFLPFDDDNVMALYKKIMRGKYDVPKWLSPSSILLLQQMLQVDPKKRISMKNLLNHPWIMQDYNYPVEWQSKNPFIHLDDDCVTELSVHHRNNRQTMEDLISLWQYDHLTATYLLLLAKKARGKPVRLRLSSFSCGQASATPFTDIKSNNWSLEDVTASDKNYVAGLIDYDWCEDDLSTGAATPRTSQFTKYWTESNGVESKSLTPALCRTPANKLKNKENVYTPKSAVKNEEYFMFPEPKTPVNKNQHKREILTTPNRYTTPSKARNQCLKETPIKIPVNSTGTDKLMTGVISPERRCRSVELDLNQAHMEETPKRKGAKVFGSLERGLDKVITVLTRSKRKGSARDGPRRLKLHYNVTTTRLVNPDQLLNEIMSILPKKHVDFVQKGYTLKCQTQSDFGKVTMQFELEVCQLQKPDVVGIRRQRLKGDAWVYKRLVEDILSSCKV
ASSAY_NOTES: Z’-LYTE enzymatic assay
Format: biochemical
MEASUREMENT_CONTEXT: measured by Z’LYTE biochemical assay; class symbols in Figure 2C; read-out: Potency (MELK)
ASSAY_READOUT: IC50

Measured IC50 (MELK (Homo sapiens, UniProt Q14680)), entry CN(C)C[C@H]1CC[C@H](N2C(=O)NCc3cnc4ccc(-c5cc(Cl)c(O)c(Cl)c5)cc4c32)CC1 : < 20 nM
